Assay: yeast display, Sf9 membrane polyspecificity reagent, FACS + sequencing; frameworks hold sequencing errors

[
  {
    "BIOPOLYMER SEQUENCE": "QVQLVESGGGLVQAGGSLRLSWAASGNIFLYYAMGWYRQAPGKERELVPDIDSSGASTYYADSVKGRFTISRDNAKNTVYLQMNSLKPEDTAVYYCAAEFHWWYAGDDYGYWGQGTQVTVSS",
    "polyreactivity (PSR sort gate)": "low polyreactivity"
  },
  {
    "BIOPOLYMER SEQUENCE": "QVQLVESGGGLVQAGGSLRLSCAASGSISVYNAMGWYRQAPGKVRELVAAISWSGGRTSYADSVKGRFTISRDHAKNTVYLQMNSLKPEDTAVYYCAADELTGLWDEDYWGPGTQVTVSS",
    "polyreactivity (PSR sort gate)": "low polyreactivity"
  },
  {
    "BIOPOLYMER SEQUENCE": "QVQLVESGGGLVQAGGSLRLSCAAAGRTFYSYAMGWYRQAPGKEREFVAAINWSGTSTYADSVKGRFTISRDNAKNTVYLQMTSLKPEDTAVYYCAADLPAEYYHWGQGTQVTVSS",
    "polyreactivity (PSR sort gate)": "high polyreactivity"
  },
  {
    "BIOPOLYMER SEQUENCE": "QGQLVESGGGLVQAGGSLRLSCAASGSIVFYYGMGWYRQAPGKERELVAAITWSGDSPYDADSVKGRFTISRDNAKNTVYLQLNSLKPEDTAVYYCNADQTSYYYPGNYDYWGQGTQVTVSS",
    "polyreactivity (PSR sort gate)": "high polyreactivity"
  },
  {
    "BIOPOLYMER SEQUENCE": "QVQLVESGGGLVQAGGSLRLSCAASGLTFGYYAMVWYRQAPGKERELVAAINRSGNTNYADSVKGRFTISRDNAKNTVYLQMNCLKPEDTAVYYCAKRIWSILSPYKSSYGYDYWGQGSQVTVSS",
    "polyreactivity (PSR sort gate)": "low polyreactivity"
  },
  {
    "BIOPOLYMER SEQUENCE": "QVQLVESGGGLVQAGGSLRLSCAAYGIIFRRNAMGWYRQAPGKERELVAAISWSGGTTYYADSVKGRFTISRDNAKYTVYLQIISLKPEDTAVYYCAAGLISRPYGYDYWGQCTQVTVSS",
    "polyreactivity (PSR sort gate)": "high polyreactivity"
  },
  {
    "BIOPOLYMER SEQUENCE": "QVQLVESGGGLVQAGGSLRLSCADSGSILGNAMVWYRQAPGKERELVAAITRGVSTYYADSVKGRFTISRDNAKNTVYLQMNSLKPEDTAVYYCYKTYVRGVHGVYLPITSYDYWGQGTQVTVSS",
    "polyreactivity (PSR sort gate)": "low polyreactivity"
  },
  {
    "BIOPOLYMER SEQUENCE": "QVQLVESGGGLVQAGGSLRLSCAASGITFNSYRMVWYRQAPVKERELVAAISGSGSSTYYADSVKGRFTISRDNAKNTVYLQMNSLKPEDTGVYYCADVSGKNVDFVWVLAYPRLDYWGQGTQVTVSS",
    "polyreactivity (PSR sort gate)": "low polyreactivity"
  },
  {
    "BIOPOLYMER SEQUENCE": "QVQLVESGGGLVQAGGSLRLSCSASGFTFKRYAKGLYRQAHGKERELVASISSSGGRTYYADSVKGRFTISRDNAKNTVYLQMNSLKPEDTAVYYCSASDWWGYYFWGQGTQVTVSS",
    "polyreactivity (PSR sort gate)": "high polyreactivity"
  },
  {
    "BIOPOLYMER SEQUENCE": "QVQLVESGGGLVQAGGSLRLSCAASGRIFRLYAMGWYRQAPGKERELVAAISKSGGSTYYADSVKGRFTISRDTATNTVYLQMNSLKPEDTAVYYCAADYRTHGGYEGTFDYWGQGTQVTVSS",
    "polyreactivity (PSR sort gate)": "low polyreactivity"
  },
  {
    "BIOPOLYMER SEQUENCE": "QVQLVESGGGLVQAGGSLRLSCAASGRTFVRYTMGWYRQAPGKERELVAAISISGGRTYYADSVQGRFTISRDNAKNTVYLQMNSLKPEDTAVYYCAKDYLGGQLASTGGYDYWGLGTQVTVSS",
    "polyreactivity (PSR sort gate)": "low polyreactivity"
  }
]

* * *

Assay: yeast display, Sf9 membrane polyspecificity reagent, FACS + sequencing; frameworks hold sequencing errors

[
  {
    "BIOPOLYMER SEQUENCE": "QVQLVESGGGLDQAGGSLRLSCAASGSIFQYYAMGWYRQAPGKEREFVAAITSDGSSTYYADSVKGRFTISRDNAKNTVYLQMNSLKPEDTAVYYCAAGWVGYRLPSMYYWGQGTQVTVSS",
    "polyreactivity (PSR sort gate)": "high polyreactivity"
  },
  {
    "BIOPOLYMER SEQUENCE": "QVQLVESGGGLVQAGGSLRLSCAASGIIFYEYVMGWYRQAPGKEREVVATISSIGGATYYADSVKGRFTISRDNAKNTVYLQMNSLKPEDTAVDYCAADPEPVVARGGNWYGDDDWGQGTQVTVSS",
    "polyreactivity (PSR sort gate)": "high polyreactivity"
  },
  {
    "BIOPOLYMER SEQUENCE": "QVQLVESGGGLVQAGGSLRISCAASGITLAKNAMGWYRQAPGKETELVAAISRRGGNTYYADSVKGRFTISRDNAKNTVYLQMNSLKPEDTAVYYCAVDYRSTGLGYWGQGTQVTVSS",
    "polyreactivity (PSR sort gate)": "high polyreactivity"
  },
  {
    "BIOPOLYMER SEQUENCE": "QVQLVESGGGLVQAGGSLRLSCAASGFTFSYNAMGWYRQAPGKERELVAVIKSSGGRTYYADSVKGRFTISRDNAKNTVYLQMNSLKPEDTAVYYCNAVYLQHRYRMYYWGQGTQVTVSS",
    "polyreactivity (PSR sort gate)": "high polyreactivity"
  },
  {
    "BIOPOLYMER SEQUENCE": "QVQLVESGGGLVQAGGSLRLSCAASGSTFVDYAMGWYRQAPGKERELVAAINSDGGGTYYADSVKGRFTISRDNAKNTVYLQMNSLKPEDTAVYYCNVEYEDYYAQRYGYDYWGQGTQVTVSS",
    "polyreactivity (PSR sort gate)": "low polyreactivity"
  },
  {
    "BIOPOLYMER SEQUENCE": "QGQLEESGGGLVQAGGSLRLSCAASGSIFTLYAMGWYRQAPGKERELVAAITRSGGSTYYADSVKGRFTISRDNAKNTVYLQMNSLKPEDTAVYYCAADKAPYSTEGDYWGQGTQVTVSS",
    "polyreactivity (PSR sort gate)": "high polyreactivity"
  },
  {
    "BIOPOLYMER SEQUENCE": "QVQLVESGGGLVQAGGSLRLSCAASGFTFGRYAMGWYRQAPGKERELVAAITSRGGSTYYADSVKGRFTISRDNAKNTVYLQMNSLKPEDTAVYYCNRDLVDSYGYWGQGTQVTVSS",
    "polyreactivity (PSR sort gate)": "high polyreactivity"
  },
  {
    "BIOPOLYMER SEQUENCE": "QVQLVESGGGLVQAGGSLRLSCAASGRIFDGYAMGWYRQAPGKERELVATITGDGGSTYYADSVKGRFTISRDNAKNTVYLQMNSLKPEDTAVYYCAARLTRRLSWYLYNNDYWGQGTQVTVSS",
    "polyreactivity (PSR sort gate)": "high polyreactivity"
  },
  {
    "BIOPOLYMER SEQUENCE": "QVQLVESGGGLVQAGGSLRLSCAASGSTFWSYAMGWYRQAPGKERELVAAISYRGTRTRYADSVKGRFTISRDNAKNTVYLQMNSLKPEDTAVYYCAADRTFYGIRFDYWGQGTQVTVSS",
    "polyreactivity (PSR sort gate)": "high polyreactivity"
  },
  {
    "BIOPOLYMER SEQUENCE": "QVQLVESGGGLVQAGGSLRLSCAASGFTFDDYAMGWYRQAPGKERELVAAISWSGGSTYYADSVKGRFTISRDNAKNTVYLQMNSLKPEDTAVYYCAALRTGAQYSTMDYWGQGTQVTVSS",
    "polyreactivity (PSR sort gate)": "low polyreactivity"
  },
  {
    "BIOPOLYMER SEQUENCE": "QVQLVDSGGGLVQAGGSLRLSCAASGSIFTAYAMGWYRQAPGKERELVAAITSGGSTNYADSVKGRFTISRDNAKNTVYLQMNSLKPEDTAVYYCNADDYWLDSWSSVLWYDYWGQGTQVTVSS",
    "polyreactivity (PSR sort gate)": "low polyreactivity"
  }
]

* * *

Test: yeast display, Sf9 membrane polyspecificity reagent, FACS + sequencing; frameworks hold sequencing errors

[
  {
    "BIOPOLYMER SEQUENCE": "QVQLVESGGGLVQAGGSLRLSCAASGSIFRYYAMGWYRQAPGKERELVANISRGGRTYYADSVKGRFTISRDNAKYTVYLQLHSLNPEDTSVYYCAAGYWFSYSRVTRYDYWGQGTQVTVSS",
    "polyreactivity (PSR sort gate)": "high polyreactivity"
  },
  {
    "BIOPOLYMER SEQUENCE": "QVQLVESGGGLVQAGGSLRLSCAASGSTFGSYGMGWYRQSPGKERELVAGITSAGSTYYADSVKGRFTISRDNAKNTVYLQMNSLKPEDTAVYYCNARSGIVWYYDNDYWGQGTQVTVSS",
    "polyreactivity (PSR sort gate)": "low polyreactivity"
  },
  {
    "BIOPOLYMER SEQUENCE": "QVQLVESGGGLVQAGGSLRLSCAASGRIFSFNAMGWYRQAPGKERELVATIRTDGTTNYADSVKGRFTISRDNAKNTVYLQMNSLKPEDSAVYYCATDSGWSTYDYWGQGTQVTVSS",
    "polyreactivity (PSR sort gate)": "high polyreactivity"
  },
  {
    "BIOPOLYMER SEQUENCE": "QDQLVESGGGLVQAGGSLRLTCAASGSIFSANVMGWYRQAPGKERELVAAIRRGGTTYYADSVKGRFTISRDNSKNTVYLQMNRLNPEDSAVYYCATDGIFGSYLRFEVAYDYWGQGTQVTVSS",
    "polyreactivity (PSR sort gate)": "low polyreactivity"
  },
  {
    "BIOPOLYMER SEQUENCE": "QVQLVESGGGLVQAGGSLRLSCAASGFIFRRYAMGWYRPAPGKERELVAAITGGGGSTYYADSVKGRFTISRDNAKNTVYLQMNSLKPEDSAVYYCAASQARNYKIYDYWGQGTQVTVSS",
    "polyreactivity (PSR sort gate)": "high polyreactivity"
  },
  {
    "BIOPOLYMER SEQUENCE": "QVQLVESVGGVVQAGGSLRLSCAASGRIFDRNAKGWYSQAPGKERELVAAITSGGSTNYADSVKGRFTISRDNAKNTVYLQMNSLKPEDTAVYYCANDFTSRYAPPEAYDYWGQGTQVTVSS",
    "polyreactivity (PSR sort gate)": "low polyreactivity"
  },
  {
    "BIOPOLYMER SEQUENCE": "QVQLVESGGGLVQAGGSLRISCAASGGTFQPYAMGWYRQAPGKERELVAAITSSDGSTYYADSVKWRFTISRDNAKNTVYLQMNSLKPEDTAVYYCNATIASGYGDRYVDTSHDYWGQGTQVTVSS",
    "polyreactivity (PSR sort gate)": "low polyreactivity"
  },
  {
    "BIOPOLYMER SEQUENCE": "QFQLVESGGGIVQAGGSLRLSCAASGFTFVYYAMGWYRQAPGKERQLVAAITRSAGSTYYADSVKGRFTISRDNAKNTVYLQMNSLKPEDTAVYYCAALNSRYSKAQRMDYWGQGTQVTVSS",
    "polyreactivity (PSR sort gate)": "low polyreactivity"
  },
  {
    "BIOPOLYMER SEQUENCE": "QVQLVESGGGLVQAGGSLRLSCAASGRTFSVYAMGWYRQAPGKERELVARIRSGGSTYYADSVKGRFTISRDNAKNTVYLQMNRLKPEDTAVYYCATQHYGPSSNARGVYRYYYWGHGTQVTVSS",
    "polyreactivity (PSR sort gate)": "high polyreactivity"
  },
  {
    "BIOPOLYMER SEQUENCE": "QVQLVESGGGLVQAGGSLRLSCAASGRTFVRNAMGWYRQAPGKERELVATIRSGGSTNYADSVKGRFTISRDNAKNTVYLQMNSLKPEDTAVYYCATQGSRARYDYYYWGQGTQVTVSS",
    "polyreactivity (PSR sort gate)": "high polyreactivity"
  },
  {
    "BIOPOLYMER SEQUENCE": "QVQLVESGGGLVQAGGSLRLSCGASGRIFAVNAMGWYRQARGKERELVAAITNVGSTNYADSVKGRFTISRDNAKNTVYLQMNSLKPEDTAVYYCNADLAQEDWKMDYWGLGTQVTVSS",
    "polyreactivity (PSR sort gate)": "low polyreactivity"
  }
]
